# System under test: ACVR2B, Q13705
# Sequence (Q13705 whole entry, looked up): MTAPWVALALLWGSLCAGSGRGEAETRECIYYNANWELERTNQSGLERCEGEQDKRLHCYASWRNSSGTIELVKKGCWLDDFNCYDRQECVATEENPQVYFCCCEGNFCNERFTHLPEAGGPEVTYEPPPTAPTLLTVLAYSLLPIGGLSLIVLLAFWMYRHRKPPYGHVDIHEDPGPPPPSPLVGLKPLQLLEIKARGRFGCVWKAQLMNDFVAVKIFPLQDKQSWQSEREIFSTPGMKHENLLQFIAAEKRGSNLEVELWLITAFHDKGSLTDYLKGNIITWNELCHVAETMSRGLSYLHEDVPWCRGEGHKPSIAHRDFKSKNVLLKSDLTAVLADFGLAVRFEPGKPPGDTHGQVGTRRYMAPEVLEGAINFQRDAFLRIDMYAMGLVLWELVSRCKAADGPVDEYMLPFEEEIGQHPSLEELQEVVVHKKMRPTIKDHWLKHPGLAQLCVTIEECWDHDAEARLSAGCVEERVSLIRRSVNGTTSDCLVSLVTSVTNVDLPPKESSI
# Test summary: Kd (SPR)
Measured property: pKd
Numbers only, as −log10 of the molar value.

In the examples that follow, each entry is paired with its recorded pKd.
Binder: unnamed (protein) chain 1: QVQLVQSGAEVKKPGASVKVSCKASGYTFTSSYINWVRQAPGQGLEWMGTINPVSGSTSYAQKFQGRVTMTRDTSISTAYMELSRLRSDDTAVYYCARNGYADYWGQGTLVTVSS chain 2: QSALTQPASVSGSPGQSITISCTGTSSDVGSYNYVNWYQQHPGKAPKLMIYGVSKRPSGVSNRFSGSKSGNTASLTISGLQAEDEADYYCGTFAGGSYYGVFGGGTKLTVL
pKd: 6.47

Binder: unnamed (protein) chain 1: QVQLVQSGAEVKKPGASVKVSCKASGYTFTSSYINWVRQAPGQGLEWMGTINPVSGSTSYAQKFQGRVTMTRDTSISTAYMELSRLRSDDTAVYYCARGGYFDVWGQGTLVTVSS chain 2: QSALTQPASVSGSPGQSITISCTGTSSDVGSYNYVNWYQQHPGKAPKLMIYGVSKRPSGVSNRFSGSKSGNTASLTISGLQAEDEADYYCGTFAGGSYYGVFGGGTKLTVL
pKd: 7.58

Give measured pKd for every item shown.
1. unnamed (protein) chain 1: QVQLVQSGAEVKKPGASVKVSCKASGYTFTSSYINWVRQAPGQGLEWMGTINPVSGSTSYAQKFQGRVTMTRDTSISTAYMELSRLRSDDTAVYYCARGGDMDYWGQGTLVTVSS chain 2: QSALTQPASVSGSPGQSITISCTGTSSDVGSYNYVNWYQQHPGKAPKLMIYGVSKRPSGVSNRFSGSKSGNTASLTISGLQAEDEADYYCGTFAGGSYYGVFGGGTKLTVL
2. unnamed (protein) chain 1: QVQLVQSGAEVKKPGASVKVSCKASGYTFTSSYINWVRQAPGQGLEWMGTINPVSGSTSYAQKFQGRVTMTRDTSISTAYMELSRLRSDDTAVYYCARGGYNDYWGQGTLVTVSS chain 2: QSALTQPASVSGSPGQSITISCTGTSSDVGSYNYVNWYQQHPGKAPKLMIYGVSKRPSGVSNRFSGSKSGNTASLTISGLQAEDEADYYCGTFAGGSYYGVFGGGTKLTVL
3. unnamed (protein) chain 1: QVQLVQSGAEVKKPGASVKVSCKASGYTFTSSYINWVRQAPGQGLEWMGTINPVSGSTSYAQKFQGRVTMTRDTSISTAYMELSRLRSDDTAVYYCARSGYFDYWGQGTLVTVSS chain 2: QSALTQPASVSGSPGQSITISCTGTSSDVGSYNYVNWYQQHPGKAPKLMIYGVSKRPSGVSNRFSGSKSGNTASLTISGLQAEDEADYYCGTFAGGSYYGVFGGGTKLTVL

Solution:
1: 6.79; 2: 7.00; 3: 8.04
